# System: SK-N-SH
# test.method.notes: Cytotoxicity against human SK-N-SH cells assessed as reduction in cell viability incubated for 24 hrs by SRB assay
# Assay type: functional, cell-based
Below: a set of entries, each annotated with reported IC50.

smiles.repr	IC50, µM
COc1cc(/C=C/C(=O)CC(=O)/C=C/c2ccc(OCCC[P+](c3ccccc3)(c3ccccc3)c3ccccc3)c(OC)c2)ccc1OCCC[P+](c1ccccc1)(c1ccccc1)c1ccccc1	5.12
COc1cc(/C=C/C(=O)CC(=O)/C=C/c2ccc(OCCC[P+](c3ccccc3)(c3ccccc3)c3ccccc3)c(OC)c2)ccc1O	8.19

* * *

# Tested on: DU-145
# test.method.notes: Cytotoxicity against human DU-145 cells assessed as reduction in cell viability incubated for 24 hrs by SRB assay
# Assay type: functional, cell-based
# conditions.used: DU-145, 24 h
Recorded IC50, one value per entry.
quantity: IC50 (µM)

smiles.repr	test.result
COc1cc(/C=C/C(=O)CC(=O)/C=C/c2ccc(OCCC[P+](c3ccccc3)(c3ccccc3)c3ccccc3)c(OC)c2)ccc1OCCC[P+](c1ccccc1)(c1ccccc1)c1ccccc1	5.1
COc1cc(/C=C/C(=O)CC(=O)/C=C/c2ccc(OCCC[P+](c3ccccc3)(c3ccccc3)c3ccccc3)c(OC)c2)ccc1O	8.62
